# Measured On: CDK4 (Homo sapiens, UniProt P11802+Q16531)
# Sequence (P11802 2-303 limits assumed): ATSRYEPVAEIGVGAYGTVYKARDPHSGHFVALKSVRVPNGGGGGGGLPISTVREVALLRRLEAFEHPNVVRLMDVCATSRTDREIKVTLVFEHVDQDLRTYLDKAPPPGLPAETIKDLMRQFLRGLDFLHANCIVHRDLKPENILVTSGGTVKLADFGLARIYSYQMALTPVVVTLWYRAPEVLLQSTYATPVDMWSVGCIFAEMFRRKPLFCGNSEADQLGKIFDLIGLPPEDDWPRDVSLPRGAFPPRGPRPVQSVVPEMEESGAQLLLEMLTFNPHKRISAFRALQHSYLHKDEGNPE
# Sequence (P24385 whole entry partner): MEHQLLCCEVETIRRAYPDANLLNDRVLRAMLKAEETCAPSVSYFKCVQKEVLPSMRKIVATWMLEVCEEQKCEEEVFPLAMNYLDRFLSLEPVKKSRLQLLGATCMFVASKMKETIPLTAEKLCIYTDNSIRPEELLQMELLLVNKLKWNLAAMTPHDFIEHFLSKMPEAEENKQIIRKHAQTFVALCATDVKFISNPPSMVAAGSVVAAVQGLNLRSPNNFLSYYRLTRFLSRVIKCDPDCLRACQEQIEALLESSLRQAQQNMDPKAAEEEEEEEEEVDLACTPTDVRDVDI
# Sequence (Q16531 2-1140 limits assumed): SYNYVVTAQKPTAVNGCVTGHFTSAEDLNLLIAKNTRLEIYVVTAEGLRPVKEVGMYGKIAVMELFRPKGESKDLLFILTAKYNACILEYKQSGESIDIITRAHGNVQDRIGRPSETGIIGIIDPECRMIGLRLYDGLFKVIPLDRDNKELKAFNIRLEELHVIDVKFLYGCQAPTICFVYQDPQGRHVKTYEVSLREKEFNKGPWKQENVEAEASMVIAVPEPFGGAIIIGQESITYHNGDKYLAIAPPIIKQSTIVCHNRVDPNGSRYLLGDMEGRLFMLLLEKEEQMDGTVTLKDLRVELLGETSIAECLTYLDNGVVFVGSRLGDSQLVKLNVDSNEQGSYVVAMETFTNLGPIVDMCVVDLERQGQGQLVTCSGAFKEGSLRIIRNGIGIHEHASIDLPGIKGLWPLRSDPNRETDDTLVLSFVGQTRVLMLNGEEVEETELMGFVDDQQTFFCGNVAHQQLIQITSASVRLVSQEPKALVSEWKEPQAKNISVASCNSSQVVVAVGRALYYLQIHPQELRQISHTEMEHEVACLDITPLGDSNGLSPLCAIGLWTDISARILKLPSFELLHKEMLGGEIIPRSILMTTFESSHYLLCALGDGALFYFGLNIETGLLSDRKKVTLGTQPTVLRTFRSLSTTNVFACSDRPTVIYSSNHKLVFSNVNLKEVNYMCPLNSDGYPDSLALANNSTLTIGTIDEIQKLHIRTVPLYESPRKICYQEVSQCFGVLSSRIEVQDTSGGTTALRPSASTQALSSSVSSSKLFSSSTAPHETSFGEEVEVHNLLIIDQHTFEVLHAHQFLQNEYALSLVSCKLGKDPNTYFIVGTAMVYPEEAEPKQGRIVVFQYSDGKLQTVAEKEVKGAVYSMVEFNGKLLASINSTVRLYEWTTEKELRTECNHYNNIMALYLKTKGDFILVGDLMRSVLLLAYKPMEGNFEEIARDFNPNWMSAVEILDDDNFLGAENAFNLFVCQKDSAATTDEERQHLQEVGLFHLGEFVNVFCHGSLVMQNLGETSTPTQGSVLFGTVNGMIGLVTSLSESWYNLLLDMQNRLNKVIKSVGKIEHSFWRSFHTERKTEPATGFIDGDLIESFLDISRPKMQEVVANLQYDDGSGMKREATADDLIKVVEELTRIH
# Experimental Protocol: CDK4 percentage degradation in Calu-1 cells (Table 6)
# Assay type: cell-based
# Design: Cells that express cyclin D1-3 and CDK4/6 proteins were treated with heterobifunctional compounds; endogenous in cells; host or cells: Calu-1
# Condition Info: 40 nM, 16 hours
Each entry below carries its reported inhibition at 0.04 µM.
Result Type: inhibition at 0.04 µM

Compound	Result Type	Reported Measurement
[2H]C([2H])([2H])Nc1ccc(C(=O)Nc2ccc(N(C)C)nn2)c(NC2CC3(C2)CN(C(=O)CN2CCC4(CCN(c5ccc(Nc6ncc7c(C)c(C(C)=O)c(=O)n(C8CCCC8)c7n6)nc5)C4)C2)C3)n1 (stereo not drawn) [CPD-384]	inhibition at 0.04 µM	< 30%
CNc1ccc(C(=O)Nc2ccc(N(C)C)nn2)c(NCC2CCN(C(=O)CN3CCN(c4ccc(Nc5ncc6c(C)c(C(C)=O)c(=O)n(C7CCCC7)c6n5)nc4)CC3)CC2)n1 [CPD-145]	inhibition at 0.04 µM	< 30%
CNc1ccc(C(=O)Nc2ccc(N(C)C)nn2)c(NC2CC3(C2)CN(C(=O)CC(C)N2CCN(c4ccc(Nc5ncc6c(C)c(C(C)=O)c(=O)n(C7CCCC7)c6n5)nc4)CC2)C3)n1 (stereo not drawn) [CPD-224]	inhibition at 0.04 µM	30 to 50%

###

# Tested on: T47D cells
# Experimental Protocol: Anti-proliferation (viability) of ER+ breast cancer T47D cells, 6 days (Table 7, FIG. 2B)
# Format: cell-based
# Condition Info: Homo sapiens, 144 h; T47D cells, 6 days, 10-point serial dilution; read-out: GI IC50 in T47D
pIC50: −log10 of the molar value.
Entries and their measured pIC50 follow.

Compound	Measured On	pIC50
CC(=O)c1c(C)c2cnc(Nc3ccc(N4CCN(CC(=O)NC5CC6(C5)CC(Nc5nc(NC(C)C)ccc5C(=O)Nc5cccc(C7CC7)n5)C6)CC4)cn3)nc2n(C2CCCC2)c1=O (centres unmarked)	T47D cells	≥ 7.30
CC(=O)c1c(C)c2cnc(Nc3ccc(N4CCN(CC(=O)NCCCCCNc5nc(NC(C)C)ccc5C(=O)Nc5ccc(N(C)C)nn5)CC4)cn3)nc2n(C2CCCC2)c1=O	T47D cells	≥ 7.30
CNc1ccc(C(=O)Nc2cccc(C)n2)c(NC2CC3(CC(NC(=O)CN4CCN(c5ccc(Nc6ncc7c(C)c(C(C)=O)c(=O)n(C8CCCC8)c7n6)nc5)CC4)C3)C2)n1 (centres unmarked)	T47D cells	≥ 7.30
CNc1ccc(C(=O)Nc2ccc(N(C)C)nn2)c(NCCCCn2cc(CN3CCN(c4ccc(Nc5ncc6c(C)c(C(C)=O)c(=O)n(C7CCCC7)c6n5)nc4)CC3)nn2)n1	T47D cells	7.00 to 7.30
CNc1ccc(C(=O)Nc2cccc(C3CC3)n2)c(NC2CC3(C2)CN(C(=O)CCN2CCN(c4ccc(Nc5ncc6c(C)c(C(C)=O)c(=O)n(C7CCCC7)c6n5)nc4)CC2)C3)n1	T47D cells	7.00 to 7.30

###

# Measured On: CDK4 (Homo sapiens, UniProt P11802+Q16531)
# Experimental Protocol: CDK4 percentage degradation in Calu-1 cells (Table 6)
# Format: cell-based
# Set-up: Cells that express cyclin D1-3 and CDK4/6 proteins were treated with heterobifunctional compounds; endogenous in cells; host or cells: Calu-1
# Condition Info: 200 nM, 16 hours

Compound	Measured On	inhibition at 0.2 µM
[2H]C([2H])([2H])Nc1ccc(C(=O)Nc2ccc(N(C)C)nn2)c(NC2CN(C(=O)C(F)(F)CN3CCN(c4ccc(Nc5ncc6c(C)c(C(C)=O)c(=O)n(C7CCCC7)c6n5)nc4)CC3)C2)n1 [CPD-248]	CDK4 (Homo sapiens, UniProt P11802+Q16531)	< 30%
CC(=O)c1c(C)c2cnc(Nc3ccc(N4CCN(CC(=O)NC5CC6(C5)CC(Nc5nc(NC(C)C)ccc5C(=O)Nc5cc(C)n(C)n5)C6)CC4)cn3)nc2n(C2CCCC2)c1=O (stereo not drawn) [CPD-253]	CDK4 (Homo sapiens, UniProt P11802+Q16531)	< 30%
CNc1ccc(C(=O)Nc2cc(C)on2)c(NC2CC(NC(=O)CN3CCN(c4ccc(Nc5ncc6c(C)c(C(C)=O)c(=O)n(C7CCCC7)c6n5)nc4)CC3)C2)n1 (stereo not drawn) [CPD-198]	CDK4 (Homo sapiens, UniProt P11802+Q16531)	30 to 50%
CNc1ccc(C(=O)Nc2ccc(N(C)C)nn2)c(NC2CCN(C(=O)CN3CCN(c4ccc(Nc5ncc6c(C)c(C(C)=O)c(=O)n(C7CCCC7)c6n5)nc4)CC3)C2)n1 (stereo not drawn) [CPD-201]	CDK4 (Homo sapiens, UniProt P11802+Q16531)	50 to 80%
CC(=O)c1c(C)c2cnc(Nc3ccc(N4CCN(CC(=O)NCCCCCNc5nc(NC(C)C)ccc5C(=O)Nc5ccc(N(C)C)nn5)CC4)cn3)nc2n(C2CCCC2)c1=O [CPD-18]	CDK4 (Homo sapiens, UniProt P11802+Q16531)	50 to 80%
CNc1ccc(C(=O)Nc2ccc(N(C)C)nn2)c(NC2CCC(CCNC(=O)CN3CCN(c4ccc(Nc5ncc6c(C)c(C(C)=O)c(=O)n(C7CCCC7)c6n5)nc4)CC3)C2)n1 (stereo not drawn) [CPD-136]	CDK4 (Homo sapiens, UniProt P11802+Q16531)	50 to 80%
CNc1ccc(C(=O)Nc2ccnc(C3CC3)c2)c(NC2CC3(CC(NC(=O)CN4CCN(c5ccc(Nc6ncc7c(C)c(C(C)=O)c(=O)n(C8CCCC8)c7n6)nc5)CC4)C3)C2)n1 (stereo not drawn) [CPD-86]	CDK4 (Homo sapiens, UniProt P11802+Q16531)	< 30%
CNc1ccc(C(=O)Nc2cnn(C)c2)c(NC2CC3(CC(NC(=O)CN4CCN(c5ccc(Nc6ncc7c(C)c(C(C)=O)c(=O)n(C8CCCC8)c7n6)nc5)CC4)C3)C2)n1 (stereo not drawn) [CPD-94]	CDK4 (Homo sapiens, UniProt P11802+Q16531)	30 to 50%
CNc1ccc(C(=O)Nc2ccc(N(C)C)nn2)c(NC2CN(C(=O)CN3CCN(c4ccc(Nc5ncc6c(C)c(C(C)=O)c(=O)n(C7CCCC7)c6n5)nc4)CC3)C2)n1 [CPD-187]	CDK4 (Homo sapiens, UniProt P11802+Q16531)	50 to 80%
CC(=O)c1c(C)c2cnc(Nc3ccc(N4CCC(N(C)CC(=O)N5CCC(Nc6nc(NC(C)C)ccc6C(=O)Nc6ccc(N(C)C)nn6)CC5)CC4)cn3)nc2n(C2CCCC2)c1=O [CPD-360]	CDK4 (Homo sapiens, UniProt P11802+Q16531)	< 30%
CNc1ccc(C(=O)Nc2ccc(N(C)C)nn2)c(Nc2cnn(CCNC(=O)CN3CCN(c4ccc(Nc5ncc6c(C)c(C(C)=O)c(=O)n(C7CCCC7)c6n5)nc4)CC3)c2)n1 [CPD-24]	CDK4 (Homo sapiens, UniProt P11802+Q16531)	> 80%
CNc1ccc(C(=O)Nc2cc(C)on2)c(NC2CC3(CC(NC(=O)CN4CCN(c5ccc(Nc6ncc7c(C)c(C(C)=O)c(=O)n(C8CCCC8)c7n6)nc5)CC4)C3)C2)n1 (stereo not drawn) [CPD-160]	CDK4 (Homo sapiens, UniProt P11802+Q16531)	> 80%
CNc1ccc(C(=O)Nc2cccc(C)n2)c(NC2CC3(C2)CN(C(=O)C2(CN4CCN(c5ccc(Nc6ncc7c(C)c(C(C)=O)c(=O)n(C8CCCC8)c7n6)nc5)CC4)CC2)C3)n1 [CPD-171]	CDK4 (Homo sapiens, UniProt P11802+Q16531)	> 80%
CNc1ccc(C(=O)Nc2ccc(N(C)C)nn2)c(NC2CCN(CCNC(=O)CN3CCN(c4ccc(Nc5ncc6c(C)c(C(C)=O)c(=O)n(C7CCCC7)c6n5)nc4)CC3)C2)n1 (stereo not drawn) [CPD-106]	CDK4 (Homo sapiens, UniProt P11802+Q16531)	50 to 80%
CNc1ccc(C(=O)Nc2ccc(N(C)C)nn2)c(NC2CC3(C2)CC(OC(C)(C)C(=O)N2CCN(c4ccc(Nc5ncc6c(C)c(C(C)=O)c(=O)n(C7CCCC7)c6n5)nc4)CC2)C3)n1 (stereo not drawn) [CPD-216]	CDK4 (Homo sapiens, UniProt P11802+Q16531)	50 to 80%
CC(=O)c1c(C)c2cnc(Nc3ccc(N4CCN(CC(=O)NC5CC6(C5)CC(Nc5nc(C(C)C)ccc5C(=O)Nc5cccc(C7CC7)n5)C6)CC4)cn3)nc2n(C2CCCC2)c1=O (stereo not drawn) [CPD-119]	CDK4 (Homo sapiens, UniProt P11802+Q16531)	30 to 50%
CNc1ccc(C(=O)Nc2ccc(N(C)C)nn2)c(NC2CC(CNC(=O)CN3CCN(c4ccc(Nc5ncc6c(C)c(C(C)=O)c(=O)n(C7CCCC7)c6n5)nc4)CC3)C2)n1 (stereo not drawn) [CPD-79]	CDK4 (Homo sapiens, UniProt P11802+Q16531)	50 to 80%
CNc1ccc(C(=O)Nc2cc[nH]n2)c(NC2CC3(CC(NC(=O)CN4CCN(c5ccc(Nc6ncc7c(C)c(C(C)=O)c(=O)n(C8CCCC8)c7n6)nc5)CC4)C3)C2)n1 (stereo not drawn) [CPD-100]	CDK4 (Homo sapiens, UniProt P11802+Q16531)	50 to 80%
CNc1ccc(C(=O)Nc2cccc(C#N)n2)c(NC2CC3(CC(NC(=O)CN4CCN(c5ccc(Nc6ncc7c(C)c(C(C)=O)c(=O)n(C8CCCC8)c7n6)nc5)CC4)C3)C2)n1 (stereo not drawn) [CPD-90]	CDK4 (Homo sapiens, UniProt P11802+Q16531)	50 to 80%
CC(=O)c1c(C)c2cnc(Nc3ccc(N4CCN(CC(=O)NCCCCCCCNc5nc(C)ccc5C(=O)Nc5ccc(C)c(C6CC6)n5)CC4)cn3)nc2n(C2CCCC2)c1=O [CPD-9]	CDK4 (Homo sapiens, UniProt P11802+Q16531)	> 80%
CNc1ccc(C(=O)Nc2cccc(C)n2)c(NC2CC(CNC(=O)CN3CCN(c4ccc(Nc5ncc6c(C)c(C(C)=O)c(=O)n(C7CCCC7)c6n5)nc4)CC3)C2)n1 (stereo not drawn) [CPD-170]	CDK4 (Homo sapiens, UniProt P11802+Q16531)	> 80%
